- Tested on: VEEV TC83
- experiment-description: microbe, parasite or virus in culture
- Type: cell-based, Venezuelan equine encephalitis virus
- condition: Venezuelan equine encephalitis virus, read-out: Human BE(2)-M17 (TC83) EC50 (μM)
Would you kindly list EC50 for each of these molecules?

Reported EC50 ( COC(=O)/C=C/C(C)(C)NC(=O)c1cccc2c1NC(C)(C)C=C2C ) = > 25 µM

Reported EC50 ( COC(=O)/C=C/CNC(=O)c1cccc2cccnc12 ) = > 25 µM

Reported EC50 ( COC(=O)/C=C/CNC(=O)c1ccccc1Nc1ccccc1 ) = > 25 µM

Reported EC50 ( CS(=O)(=O)/C=C/CNC(=O)c1cccc2nccnc12 ) = > 25 µM

Reported EC50 ( COC(=O)/C=C/[C@H](C)NC(=O)c1cccc2c1NC(C)(C)C=C2C ) = > 25 µM

Reported EC50 ( COC(=O)/C=C/CNC(=O)c1ccccc1Nc1cccc(Cl)c1Cl ) = > 25 µM

Reported EC50 ( COC(=O)/C=C/[C@H](Cc1ccccc1)NC(=O)c1cccc2c1NC(C)(C)C=C2C ) = > 50 µM

Reported EC50 ( CC1=CC(C)(C)Nc2c(C(=O)N[C@H](/C=C/S(C)(=O)=O)Cc3ccccc3)cc(C)cc21 ) = 31.7 µM

Reported EC50 ( O=C(N[C@H](/C=C/S(=O)(=O)c1ccccc1)Cc1ccccc1)c1cccc2c1NCCC2 ) = > 25 µM
